# PROTOCOL DESCRIPTION: recombinant UMI read abundance after kanamycin selection (control-corrected) (log10(CPM+1)); higher = more efficient recombination; extreme values may be limits of the assay; sequences stand for … in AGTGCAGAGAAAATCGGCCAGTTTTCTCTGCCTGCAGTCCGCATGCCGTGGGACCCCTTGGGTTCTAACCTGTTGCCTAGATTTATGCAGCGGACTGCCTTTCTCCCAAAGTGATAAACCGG…AGGTTGGTTTCACT; site = the 11-nt donor;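 note: IS621 bridge recombinase in Escherichia coli cells against a fixed T5 target plasmid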
READOUT LABEL: recombinant UMI read abundance (log10)

• ACTGTATCATGGACCGGTTTTCCCGGTAATCCGTATTTGCA (site ACTGTATCTTG) = 2.57
• AGGAAGTCATGGACCGGTTTTCCCGGTAATCCGTATTTGCA (site AGGAAGCCTTG) = 0.641
• TGTACACCATGGACCGGTTTTCCCGGTAATCCGTATTTGAT (site TGTACACCTTT) = 0.00971
• CGATCGTCATGGACCGGTTTTCCCGGTAATCCGTATTTGTT (site CGATCGCCTAA) = 0.0131
• AAGCACGCATGGACCGGTTTTCCCGGTAATCCGTATTTGGC (site AAGCACGCTAC) = 0.701
• GTATGTACATGGACCGGTTTTCCCGGTAATCCGTATTTGAC (site GTACGTACTGT) = 2.5
• TGTACTCCATGGACCGGTTTTCCCGGTAATCCGTATTTGAC (site TGTACACCTGT) = 0
• GGTCCAACATGGACCGGTTTTCCCGGTAATCCGTATTTGAA (site GGTCCAACTTA) = 0.0074
• CCTTATACATGGACCGGTTTTCCCGGTAATCCGTATTTGGC (site CCTTATACTGC) = 0
• CGGGAACCATGGACCGGTTTTCCCGGTAATCCGTATTTGAT (site CGGGAACCTAA) = 0.00496
• GAAGCAGCATGGACCGGTTTTCCCGGTAATCCGTATTTGCT (site AAAGCAGCTAG) = 1.32
• AGATTCCCATGGACCGGTTTTCCCGGTAATCCGTATTTGTG (site AGCTTCCCTCA) = 0.0129
• ACATCTGCATGGACCGGTTTTCCCGGTAATCCGTATTTGTG (site ACATCTACTCA) = 0.401
• CCGTAGCCATGGACCGGTTTTCCCGGTAATCCGTATTTGCC (site CCTTAGCCTGG) = 0
• CGTGGAACATGGACCGGTTTTCCCGGTAATCCGTATTTGTT (site CGTTGAACTAA) = 0
• GCGAAACCATGGACCGGTTTTCCCGGTAATCCGTATTTGTG (site GCGAAACCTCA) = 0
• GTGGAGGCATGGACCGGTTTTCCCGGTAATCCGTATTTGTG (site GTGGACGCTCA) = 1.02
• CTGCTACCATGGACCGGTTTTCCCGGTAATCCGTATTTGGT (site CTGCTACCTAT) = 0.00703

###

# PROTOCOL DESCRIPTION: recombinant UMI read abundance after kanamycin selection (control-corrected) (log10(CPM+1)); higher = more efficient recombination; extreme values may be limits of the assay; sequences stand for … in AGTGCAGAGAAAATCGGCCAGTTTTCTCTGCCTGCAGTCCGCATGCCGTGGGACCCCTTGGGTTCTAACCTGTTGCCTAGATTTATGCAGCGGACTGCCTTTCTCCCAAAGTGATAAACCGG…AGGTTGGTTTCACT; site = the 11-nt donor
# label = yes if recombinant UMI read abundance (log10) >= 1 else no

* CAAGCAGCATGGACCGGTTTTCCCGGTAATCCGTATTTGCT (site CAAGCGGCTAG) | no
* AGGTCTACATGGACCGGTTTTCCCGGTAATCCGTATTTGAC (site AGGTCTACTGT) | yes
* GAGCCCTCATGGACCGGTTTTCCCGGTAATCCGTATTTGTC (site GAGCCCTCTGA) | yes
* CGGGTCACATGGACCGGTTTTCCCGGTAATCCGTATTTGGC (site CGGGTCACTGC) | yes
* TATGTAACATGGACCGGTTTTCCCGGTAATCCGTATTTGCT (site TATGTAACTAG) | yes
* CAAGCGTCATGGACCGGTTTTCCCGGTAATCCGTATTTGTG (site CAAGCGACTCA) | no
* TAGCTAGCATGGACCGGTTTTCCCGGTAATCCGTATTTGAG (site TAGCTAGCTAT) | no
* AAGGGCCCATGGACCGGTTTTCCCGGTAATCCGTATTTGGC (site AAGGGCCCTGC) | no
* TAGGAAGCATGGACCGGTTTTCCCGGTAATCCGTATTTGCG (site TAGGAAGCTCG) | yes

Every entry's value here was drawn from the supplement of paper PMC11208160.
